Tested On: T1, HA3-RUB-GST, Q9SHE7
T1 chain: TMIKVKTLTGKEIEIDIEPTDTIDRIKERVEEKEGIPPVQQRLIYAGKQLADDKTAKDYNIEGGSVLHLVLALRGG
Measured Attribute: in vitro deubiquitylation activity

{"Protein": "His-tagged OTU9 (protein) MGYEPDPDALRWGLHDLEVCTLTNAGSCSSVTRYESGGGGTQGYVREGYNQPVTGYVDNDAVIAQFYQDELSRVARAEASGINSLSPTSVVAQDWPHPHQGQENQGEAIDITQESDILHNHNGNMEDKNVARIRFEGGQSSPSRDDDSVCSVEIEEESWSEVGKRLNQMIPIAHVPKINGELPSEDEQISDHERLFQRLQLYGLVENKIEGDGNCQFRSLSDQLYRSPEHHNFVREQVVNQLAYNREIYEGYVPMAYNDYLKAMKRNGEWGDHVTLQAAADLFGVRMFVITSFKDTCYIEILPHFQKSNRLICLSFWAEVHYNSIYPEGELPIPEGKKKKKYWVF", "Readout Value": "+"}
{"Protein": "His-tagged OTU7a (protein) MAKTKQQKSKPKKQPHQKQGKDCDLSQFRAQLDALGLKIIQVTADGNCFFRAIADQLEGNEDEHNKYRNMIVLYIVKNREMFEPFIEDDVPFEDYCKTMDDDGTWAGNMELQAASLVTRSNICIHRNMSPRWYIRNFEDTRTRMIHLSYHDGEHYNSVRSKEDACGGPARPVVIEADAKVSAASKQAKATESKSKNKADKCHVNAGAIKVVMSGSCCDNTEKAEQVLLQVNGDVDAAIEFLIADQGMESLTENDTETASASDTINPKHASDSPMENTEQAREELIEEESASGNNSETVQAKCTTQTDDKKIPRNKTCPCGSKKKYKSCCGTATGRSSVKLLVSQTMESKKGRKNLRRGTSNEVEANAPDVGALCI", "Readout Value": "+"}
{"Protein": "GST-OTU4c (protein) MMICYSPITTCSRNAISIKRHLGSRLYGVVAHGSSKFSCYSLLSGLSRRHYTGFRVSVSNRPSSWHDKGLFGFAYTGVIVSLLVCYSSTSQSAYADSSRDKDANNVHHHSSDGKFHNGKRVYTDYSIIGIPGDGRCLFRSVAHGFCLRSGKLAPGEKMQRELADELRTRVADEFIQRRQETEWFVEGDFDTYVRQIRDPHVWGGEPELFMASHVLQMPITVYMKDDKAGGLISIAEYGQEYGKDDPIRVLYHGFGHYDALLLHESKASIPKSKL", "Readout Value": "+"}
{"Protein": "His-tagged OTU2 (protein) MEGIIVRRVIPSDNSCLFNAIGYVMDKDKNKAPELRQVIAAAVASNKEKYNEAFLGKLNEEYCAWILNPDKWGGAIELSILADYYGREIAAYDIQTSRCDLYGQTRNYDERVMLIYDGLHYDALALSPFEGAEEDFDMTIYPVGKDRSIGSIEGLALNLVKDQQRKRSYTDTANFTLRCGVCQIGVIGQKEAVEHAQATGHVNFQEYK", "Readout Value": "-"}
{"Protein": "His-tagged OTU3 (protein) MELKSSSNNNILEQLRNGFARFELVSSPTASVSDSISSTSLPASFISTTKGNSYVFFARINSSMNRSPAAKKVEKYAVDRVKGDGRCLFRALVKGMAFNKGITLNPQRERDDADELRMAVKEVICNDPKEREKYKEALVAITVDESLKRFCQRIGRHDFWGGESELLVLSKLCKQPIIVYIPEHEHGRGGGYGPGFIPIQEYGSEFRGGWGKGKTNKNVVRLLYSGRNHYDLLR", "Readout Value": "+"}
{"Protein": "GST-OTU10 (protein) MVSHEENTSIVEWFLGPHPYTYPPYGIEMIHEDDEVAVAHHHHHHQSGEYYREYEDHRSSDVDNDEIIARTLQDDFLQLEIAESNDYSHQNQQQQHQQEGYTNNYSNNNNGYAWNDQSPAVDYSSEWIGNDNDQDGRSDDSVNVFSCSSPSDTDEYVYSWESDQCDADGEFGRRLNQMVPIPYIPKINGEIPPEEEAVSDHERLRNRLEMFDFTEVKVPGDGNCQFRALADQLYKTADRHKHVRRQIVKQLKSRPDSYQGYVPMDFSDYLRKMSRSGEWGDHVTLQAAADAYRVKIVVLTSFKDTCYIEILPTSQESKGVIFLSFWAEVHYNAIYLNRDTSETELQRKRKWWRFGN", "Readout Value": "+"}
